test system: T-47D cells; experiment: Caspase cascade activation (N-(Ac-DEVD)-N'-ethoxycarbonyl-R110 fluorogenic substrate) in T-47D cells; format: cell-based, Human; details: caspase activity: ratio of net RFU of test compound to control, 48 h incubation
measurement_name: T47 Ratio 48 hr
One number for each entry.

Would you mind listing T47 Ratio 48 hr for each of the following molecules?
1. CCOc1cccc(Nc2cc(C(F)(F)F)nc(-c3ccccn3)n2)c1 [Example 92]
2. COc1ccc(Cl)c(Nc2cc(C(F)(F)F)nc(-c3cnccn3)n2)c1 [Example 82]
3. COc1ccc(OC)c(Nc2cc(C(F)(F)F)nc(-c3cnccn3)n2)c1 [Example 76]
4. COc1ccc(Oc2ccccc2)cc1Nc1cc(C(F)(F)F)nc(-c2cccnc2)n1 [Example 85]
5. COCc1cc(Nc2cccc(OC)c2)nc(-c2cccc(C)c2)n1 [Example 20]

[16.8, 15.3, 8.5, 1.7, 1.6]
